Assay: Components of the Cytosolic LPS Sensing Pathway: Gene Identification via Genome-wide siRNA Screen
Settings: RAW264.7 macrophages, IL-1a HTRF, actives lie on both sides, screened at 100 nM (by protocol), cells primed 5 h with Pam3CSK4 first
In all, about 53,000 sequences went through this assay and about 3,700 (7%) were called active. Only a selection was taken, and actives are over-represented in it overall.
Label Met when z-score is at or above 0.2; otherwise label Not met.

entry_sequence	cat
GGAGCACAAUAGUAAACUATT against Polr1a	Met
GGUGUUUGCCUCAGAAAUCTT against Cdk17	Not met
GGCACACACUGAUUUUUUUTT against Cops2	Not met
CCAGUACCCGUCUGAAAAGTT against Olfr215	Not met
CCUCUUCGGGAAAAUUCUATT against Dao	Not met
GGCUUGAUCAUGACUUAAATT against Armc8	Met
GGCCAUCCGCAUUUUUUCCTT against Mex3b	Not met
GGAUUCCAAAUGCUUACAATT against Lysmd3	Met
GCUAUGUCAACAGUAACAUTT against Mmel1	Not met
GGAAAAAACCACGAUUGAGTT against Pecam1	Not met
GGUGUUAGCGAAAUGCUCATT against Prl7b1	Not met
GCAAAAGUAUUUUGUGUCCTT against Aamp	Met
CCUCUACAAUGUAACCAACTT against Kir3dl2	Not met
GCAUUUCAGCAGAACAAUATT against Phldb1	Met
GGUAACGAUGCUGGAAUUCTT against Sdcbp	Met
GGCUUUUGAAGUAAAUACATT against Pcdhb14	Met
CGAUGCUGACUGAGAUCAUTT against Rad23a	Met
GAAGUCCUGGGACUUUAUGTT against Nudt14	Met
GGCCUAAUCGAAAUGUGGCTT against Trim12a	Met
GGAUGAAGAUGAAAAAGAUTT against Hoxc9	Not met
CCUAAUGUACACUAACUAUTT against Hsd17b14	Met
GGAUUCUUUGGUCUAUUUCTT against Pudp	Not met
GGUUUUUCGAGUUUUUUCUTT against Msx1	Met
CCUAUCUCCCUGUUCGAUATT against Rab36	Not met
CCUAAAUUUCCAACAGUCCTT against Tmem81	Met
GCUCCAACUACAUUGACUATT against Olfr1410	Not met
GGGCAGAAAAUCAUUUGUUTT against Anxa11	Not met
CGACAUCCCAAUAAACAAGTT against Lcn3	Not met
GGUCUUCUACUCCUUCUCATT against Slc6a19	Not met
CCCUCAACCAUUGUUCGAGTT against Rasal1	Not met
CGGAUUUUGAAGUACACCGTT against Alg8	Met
CCCGUCAAUACCACUUACCTT against Sidt2	Met
GGUGAGAAUGUGCUUCAAUTT against Egr2	Not met
GGAGAAAAGAGUUUGCCCGTT against Wfdc12	Not met
GGAUUGAGAAAAUCUACAUTT against Tnfrsf8	Met
GGAGAUUUACUGCUCGCUGTT against Pik3r6	Not met
GGAAGUCAAGCAAAAGUUUTT against Hsd17b7	Not met
GGAAGAAGCACAAUUUGAATT against Selenof	Not met
GCCUCUCAUUAGCAGUCAATT against Fbxl15	Not met
GGUCUCAAUCAGAGUUACATT against Zfp324	Not met
GCCGAUUGUCCUAUCUCCATT against Spg7	Met
GUAUGCUAGCAUGAUCAACTT against Ndufa3	Met
GCCACAUAAGGUUGUUCCCTT against Gamt	Met
GGAGAAGAGAAAGAUUCUUTT against Dhx9	Met
GGAAAGUGCCAUGAAGACCTT against Dbi	Not met
CCCAUGCUUGGAAUAAUUATT against Man1a	Not met
CCAAGAAAGACAGUAACUATT against 4930432K21Rik	Not met
CGUGAUCCCACAGAUGUAGTT against Csrp3	Not met
GGGAUGUUUUGUUUUUAACTT against Mlc1	Met
CCUCACCAAACCUUGUUGATT against Cd300lg	Not met
